Cited source for all entries: patent US20250034594A1

test system: gene editing with Cas9; experiment: Screen of 322 new SSAP proteins, gene editing activity with Cas9 (Table 5); type: cell-based; conditions: normalized
METRIC_NAME: Cas9 with SSAP activity (normalized)

molecule="SSAP_275: SEQ ID NO: 444; Paenibacillus pinihumi (protein, listed as Paenibacillus pinihumi) ADANKLLVINEKLIKLIESKQDAMPKSFNKTRFIQNCMAVLQDTDEIDKCDATSVARTLLKGAFLGLDFMNKECYPIIYGGKCTFQTDYKGEIKLAQKYSVRPVLNIYAELVREGDFFLKEVKDGQRTIQHKPPEGFNDGKVIGAFAIVLYKDGGMDCESMSVAEIETTRKNYSKQANGPSWTKSPGEMQKKTVLRRLCKTIQLDFDTIEAKEAFEDGGDFDFKQDPKPQQQSPFDKNATVVDAEYEEVEEEDQSESAT" result_number=−0.494
